System: Vero E6 infected with SARS-CoV-2
Assay: morphology score (similarity to uninfected cells); higher = more like uninfected cells
Settings: 24 h
Field: morphology score. Provide a value for each of the compounds that follow.
Give bare numbers.

c1ccc2c(c1)OC[C@H](CNCCCOc1ccc3c(c1)OCO3)O2 [osemozotan] (10 µM)    0.0986
CC(Cc1cccc(C(F)(F)F)c1)NCCOC(=O)c1ccccc1 (centres undefined) [benfluorex] (10 µM)    0.0298
CCCCN1CCC(CNC(=O)c2c3n(c4ccccc24)CCCO3)CC1 [piboserod] (10 µM)    0.132

Look at each compound and report its morphology score.
1. NCCCCCNCC12CC3CC(CC(C3)C1)C2 (10 µM)
2. CO[C@H]1/C=C/O[C@@]2(C)Oc3c(C)c(O)c4c(O)c(c(/C=N/N5CCN(C6CCCC6)CC5)c(O)c4c3C2=O)NC(=O)/C(C)=C\C=C\[C@H](C)[C@H](O)[C@@H](C)[C@@H](O)[C@@H](C)[C@H](OC(C)=O)[C@@H]1C [rifapentine] (10 µM)
3. O=C(OCCN1CCCCC1)c1c[nH]c2ccccc12 (10 µM)
4. Cc1cc2c(OCC(CNC(C)(C)C)OC(=O)c3ccccc3)cccc2[nH]1 (centres undefined) [bopindolol] (10 µM)
5. CC(C)c1c(NC(=O)Nc2ccc(Cl)cc2)c(=O)n(-c2ccccc2)n1C (10 µM)
6. Nc1ccc(-c2ccc3ncc4ccc(=O)n(-c5cccc(C(F)(F)F)c5)c4c3c2)cn1 [torin-2] (10 µM)

Result:
1: 0.229; 2: 0.192; 3: 0.0285; 4: 0.12; 5: 0.0113; 6: 0.162

* * *

System: Vero E6 infected with SARS-CoV-2
Test: inhibition of SARS-CoV-2 cytopathic effect; higher = more antiviral protection, active = above 15
Conditions: 100 nM; 48 h
Outcome measure: inhibition of SARS-CoV-2 cytopathic effect (%)
Give bare numbers, in %.

Look at each compound and report its inhibition of SARS-CoV-2 cytopathic effect.
1. CC(C)Cc1ccc(C(C)C(=O)O)cc1 (stereo not given) [ibuprofen]
2. CCN(CC)CCOCCOC(=O)C1(c2ccccc2)CCCC1 [carbetapentane]
3. CC(O)(P(=O)(O)O)P(=O)(O)O [etidronic-acid]
4. CS[C@H]1SC[C@H]2C(=O)N(C)[C@@H](C(C)C)C(=O)OC[C@@H](NC(=O)c3cnc4ccccc4n3)C(=O)N[C@@H](C)C(=O)N(C)[C@@H]1C(=O)N(C)[C@@H](C(C)C)C(=O)OC[C@@H](NC(=O)c1cnc3ccccc3n1)C(=O)N[C@@H](C)C(=O)N2C [echinomycin]

Result:
1: -0.0767; 2: 1.1; 3: -1.2; 4: -19.9

Look at each compound and report its inhibition of SARS-CoV-2 cytopathic effect.
1. O=c1[nH]c2ccc(Cl)cc2c(N[C@@H]2CN3CCC2CC3)c1-c1nc2ccccc2[nH]1
2. O=C(COc1ccc(Cl)cc1)N1CCN(Cc2ccc3c(c2)OCO3)CC1 [fipexide]
3. COc1ccc(/C=C/CCCCOc2ccc(C(=O)c3cccc(C(=O)O)c3)cc2CCC(=O)O)cc1
4. Cc1nc2ccc(Oc3ccc(F)cc3)cc2c(=O)n1C[C@H]1CCCN(C(C)C)C1

Result:
1: -0.9; 2: 1.92; 3: 0.3; 4: 1.67

Look at each compound and report its inhibition of SARS-CoV-2 cytopathic effect.
1. CN(C)C/C=C(/c1ccc(Br)cc1)c1cccnc1 [zimelidine]
2. NC(=O)N/N=C/c1ccc([N+](=O)[O-])o1 [nitrofurazone]
3. CC(C(=O)O)c1ccc(N2Cc3ccccc3C2=O)cc1 (stereo not given) [indoprofen]
4. CCN1CCCC1CNC(=O)c1cc(S(=O)(=O)CC)c(N)cc1OC (stereo not given) [amisulpride]
5. C1N2CN3CN1CN(C2)C3 [methenamine]
6. CCCCC[C@H](O)/C=C/[C@H]1[C@H](O)CC(=O)[C@@H]1C/C=C\CCCC(=O)O [dinoprostone]
7. C[N+](C)(C)CC[N+]1(C)Cc2c(Cl)c(Cl)c(Cl)c(Cl)c2C1 [chlorisondamine-diiodide]

Result:
0.96
-1.2
0.86
0.45
-1.64
-4.2
-0.88

Look at each compound and report its inhibition of SARS-CoV-2 cytopathic effect.
1. O=C(O)CCC/C=C\C[C@@H]1[C@@H](/C=C/[C@@H](O)COc2cccc(Cl)c2)[C@H](O)C[C@@H]1O (racemic) [cloprostenol-(+/-)]
2. c1ccc(CN(CC2=NCCN2)c2ccccc2)cc1 [antazoline]
3. CC(C)(C)CC(C)(C)c1ccc(O)c(Cc2ccc(Cl)cc2Cl)c1 [clofoctol]
4. CCCCCCCCCCOc1cc2c(O)c(C(=O)OCC)cnc2cc1OCC [decoquinate]
5. CC(=O)N1CCN(CCOc2ccc(C3CCN(C4=Nn5c(nnc5C(F)(F)F)CC4)CC3)cc2)CC1
6. CN1CCC2=C(C1)C(c1ccccc1)c1ccccc12 (stereo not given) [phenindamine]
7. O=C1c2cc(Cl)ccc2OC2CCON12 (stereo not given) [seclazone]
8. COc1cc(N)c(Cl)cc1C(=O)OCCN1CCCCC1

Result:
2.48
-2.58
2.41
-1.59
0.26
0.73
1.79
1.8

Look at each compound and report its inhibition of SARS-CoV-2 cytopathic effect.
1. CCOC(=O)c1c(CSc2ccccc2)n(C)c2cc(Br)c(O)c(CN(C)C)c12 [arbidol]
2. COc1cc(N)c(Cl)cc1C(=O)NC1CCN(Cc2ccccc2)CC1 [clebopride]

Result:
[2.92, -0.47]
